target: T1, cTnI quality control product recombinant protein (human, UniProt P19429 2-210, limits assumed); assay: sandwich ELISA, antibody 12.346 ng/ml on anti-mouse IgG, cTnI 0.15 ug/ml, HRP second mAb
T1 construct: treated as the same molecule; also called cTnI antigen; cardiac troponin I
T1 sequence (P19429 2-210 limits assumed): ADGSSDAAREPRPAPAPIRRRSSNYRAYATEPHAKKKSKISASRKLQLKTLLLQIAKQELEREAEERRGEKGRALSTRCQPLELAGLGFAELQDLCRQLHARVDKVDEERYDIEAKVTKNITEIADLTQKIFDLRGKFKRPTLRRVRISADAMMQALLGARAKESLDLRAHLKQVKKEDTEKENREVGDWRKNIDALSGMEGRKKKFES
quantity kind: OD450 (ref. 630 nm) (OD)
Value expressed in OD; do not type the unit.

# count of solved cases: 3
Mutation 2 (antibody, V domains shown, Built as m3, with this row's residues) VH: EVQLQQSGPELVKPGASVKMSCKASGYSFTLYVVHWVKQKPGQGLEWIGYIQPYLDGTKYNEKFKGKATLTVDKSSSTAFMELSSLTSEDSAVYYCARSGYGGYGLAWLAYWGQGTLVTVSA VL: QAVVIQESALTTSPGETVTLTCRSSTGAATTSQYANWVQEKPDHLFTGLIGGSNNRVPGVPARFSGSLIGDKAALTITGAQTEDEAIYFCAIVYSNHWVFGGGTKLTVLG : 1.94
Anti-cTnI-21C5 monoclonal antibody (recombinant) (antibody, mouse IgG2b, V domains shown, also called WT; Sample 1) VH: EVQLQQSGPELVKPGASVKMSCKASGYSFTLYVVHWVKQKPGQGLEWIGYIQPYLDGTRYNEKFKGKATLTVDKSSSTAFMELSSLTSEDSAVYYCARTGYGGYGLAWLAYWGQGTLVTVSA VL: QAVVIQESALTTSPGETVTLTCRSSSGAATTSQYANWVQEKPDHLFTGLIGGSNNRAPGVPARFSGSLIGDKAALTITGAQTEDEAIYFCAIVYSNHWVFGGGTKLTVLG : 1.97
Mutation 3 (antibody, V domains shown, Built as m3, with this row's residues) VH: EVQLQQSGPELVKPGASVKMSCKASGYTFTLYVVHWVKQKPGQGLEWIGYIQPYLDGTHYNEKFKGKATLTVDKSSSTAFMELSSLTSEDSAVYYCARSGYGGYGLAWLAYWGQGTLVTVSA VL: QAVVIQESALTTSPGETVTLTCRSSSGAATTSQYANWVQEKPDHLFTGLIGGSNNRIPGVPARFSGSLIGDKAALTITGAQTEDEAIYFCAAVYSNHWVFGGGTKLTVLG : 0.824

Exam item: Which OD450 (ref. 630 nm) is reported for this binder? Mutation 1 (antibody, V domains shown, CDR mutant of WT) VH: EVQLQQSGPELVKPGASVKMSCKASGYTFTLYVVHWVKQKPGQGLEWIGYIQPYLDGTKYNEKFKGKATLTVDKSSSTAFMELSSLTSEDSAVYYCARSGYGGYGLAWLAYWGQGTLVTVSA VL: QAVVIQESALTTSPGETVTLTCRSSTGAATTSQYANWVQEKPDHLFTGLIGGSNNRAPGVPARFSGSLIGDKAALTITGAQTEDEAIYFCALVYSNHWVFGGGTKLTVLG
Marked response: 2.24
